Test description: Pharmacokinetic study of dextromethorphan (DM) alone or DM in combination with bupropion, plasma concentrations by LC-MS/MS
Test context: human, in vivo, 60 mg
Measure name: concentration at 2 h
Could you write the number and then its unit?

Query: Tell me its concentration at 2 h given COc1ccc2c(c1)[C@]13CCCC[C@@H]1[C@H](C2)N(C)CC3 as the entry.
Response: 3.6 ng/mL

---

Tested on: metabolism of dextromethorphan in human liver microsomes
Test description: Inhibition of the metabolism of dextromethorphan in human liver microsomes
Test context: read-out: Mean IC50; human liver microsomes 0.5 mg/mL, dextromethorphan 5 μM, 37° C.; dextrorphan formation
Measure name: IC50 (µM)
Output spec: scalar in µM, unitless text.

C[C@H](NC(C)(C)C)[C@@H](O)c1cccc(Cl)c1 [Threohydroxybupropion] = 3.9
C[C@@H]1NC(C)(C)CO[C@@]1(O)c1cccc(Cl)c1 [(25,3S)-Hydroxybupropion] = 12.5
CC(NC(C)(C)C)C(O)c1cccc(Cl)c1 (stereo not shown) [Erythrohydroxybupropion] = 1.4

Continue with the next molecule.
Query: Indicate its recorded IC50; the molecule in question is C[C@H]1NC(C)(C)CO[C@]1(O)c1cccc(Cl)c1 [(R,R)-Hydroxybupropion]
Response: 8.2

---

System: metabolism of dextromethorphan in human liver microsomes
Measure name: pIC50
Worth noting: pIC50 values are minus log10 of concentrations stated in mol/L.

Query: // output pIC50; input CNCC[C@H](Oc1cccc2ccccc12)c1cccs1 [(S)-Duloxetine] ; system metabolism of dextromethorphan in human liver microsomes
Response: 5.39

---

Test description: Pharmacokinetic study of dextromethorphan (DM) alone or DM in combination with bupropion, plasma concentrations by LC-MS/MS
Test context: human, in vivo, 60 mg
Measure name: concentration at 8 h (ng/mL)
Give a bare numeral; the unit ng/mL is implied.

Query: Look up concentration at 8 h of COc1ccc2c(c1)[C@]13CCCC[C@@H]1[C@H](C2)N(C)CC3 [Dextromethorphan] and report it.
Response: 1.9

---

Test description: Pharmacokinetic study of dextromethorphan (DM) alone or DM in combination with bupropion, plasma concentrations by LC-MS/MS
Test context: human, in vivo, 60 mg
Measure name: concentration at 12 h (ng/mL)
Field: numeric (ng/mL). Do not append units.

Query: Return concentration at 12 h (reported value) for this molecule: COc1ccc2c(c1)[C@]13CCCC[C@@H]1[C@H](C2)N(C)CC3
Response: 1.1

---

Test description: Pharmacokinetic study of dextromethorphan (DM) alone or DM in combination with bupropion, plasma concentrations by LC-MS/MS
Test context: human, in vivo, 60 mg
Measure name: concentration at 36 h (ng/mL)
Kindly provide the numeric value in ng/mL only, without the unit symbol.

Query: Check the records and state concentration at 36 h for COc1ccc2c(c1)[C@]13CCCC[C@@H]1[C@H](C2)N(C)CC3 [Dextromethorphan]
Response: 0.1

---

Test description: Pharmacokinetic study of dextromethorphan (DM) alone or DM in combination with bupropion, plasma concentrations by LC-MS/MS
Test context: human, in vivo, 60 mg, Dextromethorphan Cmax, Day 8
Measure name: Cmax (ng/mL)
A number alone suffices; assume ng/mL.

Query: Recall and state the measured Cmax for COc1ccc2c(c1)[C@]13CCCC[C@@H]1[C@H](C2)N(C)CC3 [Dextromethorphan] .
Response: 3.8

---

Test description: Pharmacokinetic study of dextromethorphan (DM) alone or DM in combination with bupropion, plasma concentrations by LC-MS/MS
Test context: human, in vivo, 60 mg, Dextromethorphan AUC0-12, Day 1
Measure name: AUC(0-t)

Query: Name the recorded AUC(0-t) of the item COc1ccc2c(c1)[C@]13CCCC[C@@H]1[C@H](C2)N(C)CC3 in your answer.
Response: 20.1 ng·h/mL

---

Test description: Pharmacokinetic study of dextromethorphan (DM) alone or DM in combination with bupropion, plasma concentrations by LC-MS/MS
Test context: human, in vivo, 60 mg, Dextromethorphan AUC0-24, Day 8
Measure name: AUC(0-t) (ng·h/mL)
Please state the figure in ng·h/mL; there is no need to write the unit.

Query: Using the record for COc1ccc2c(c1)[C@]13CCCC[C@@H]1[C@H](C2)N(C)CC3 [Dextromethorphan] , state its measured AUC(0-t).
Response: 37.1

---

Test description: Pharmacokinetic study of dextromethorphan (DM) alone or DM in combination with bupropion, plasma concentrations by LC-MS/MS
Test context: human, in vivo, 60 mg, Dextromethorphan Cmax, Day 1
Measure name: Cmax (ng/mL)
Write the answer as a number in ng/mL, unit excluded.

Query: Complete the entry with Cmax for COc1ccc2c(c1)[C@]13CCCC[C@@H]1[C@H](C2)N(C)CC3
Response: 3
